Molecular target: Adrenergic β2 (Homo sapiens, UniProt P07550)
Construct: Adherent H292 cells were removed from tissue culture flasks; endogenous in cells; host or cells: H292 cells
Sequence (P07550 whole entry): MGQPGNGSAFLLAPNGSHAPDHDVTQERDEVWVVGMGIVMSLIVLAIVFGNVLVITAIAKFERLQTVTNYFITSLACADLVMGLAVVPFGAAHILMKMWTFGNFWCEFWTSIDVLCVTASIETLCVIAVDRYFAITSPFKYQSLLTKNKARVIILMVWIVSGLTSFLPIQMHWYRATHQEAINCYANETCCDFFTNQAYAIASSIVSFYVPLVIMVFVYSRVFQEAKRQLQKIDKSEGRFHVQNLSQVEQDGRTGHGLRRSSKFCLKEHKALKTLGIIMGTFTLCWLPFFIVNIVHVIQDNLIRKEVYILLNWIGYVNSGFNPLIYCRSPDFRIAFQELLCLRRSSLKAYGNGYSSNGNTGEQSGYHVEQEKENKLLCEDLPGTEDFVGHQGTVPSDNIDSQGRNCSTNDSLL
Assay: Adrenergic β2 mediated cAMP production in H292 cells (AlphaScreen cAMP detection)
Format: cell-based
Conditions: Intrinsic Activity, fraction relative to the maximum activity determined for formoterol
Protocol: Adrenergic β2 Mediated cAMP Production H292 cells were grown in 225 cm2 flasks incubator at 37° C., 5% CO2 in RPMI medium containing, 10% (v/v) FBS (foetal bovine serum) and 2 mM L-glutamine. […] The concentration of cAMP (cyclic adenosine monophosphate) in the cell lysate was determined using AlphaScreen™ methodology. […] Intrinsic Activity was expressed as a fraction relative to the maximum activity determined for formoterol in each experiment.
Where a name gives a salt, the structure may show the parent alone.
QUANTITY KIND: β2 Int Act
Numbers only.

# example entries with known answers
COMPOUND	NUMERIC VALUE
O=C(CCNCCc1cccc(F)c1)N(CCNCCc1ccc(O)c2[nH]c(=O)sc12)CC12CC3CC(CC(C3)C1)C2 [Example 60, bis-trifluoroacetic acid salt]	0.76
O=C(CCNCCc1ccc(Cl)cc1)N(CCNCCc1ccc(O)c2[nH]c(=O)sc12)C1CCCC1 [Example 28, bis-trifluoroacetic acid salt]	0.87
O=C(CCNCCc1cccc(O)c1)N(CCNCCc1ccc(O)c2[nH]c(=O)sc12)C1CCCCC1 [Example 71, bis-trifluoroacetic acid salt]	0.97
O=C(CCNCCc1ccc(Cl)cc1)N(CCNCCc1ccc(O)c2[nH]c(=O)sc12)C1CCC(F)(F)CC1 [Example 48, bis-trifluoroacetic acid salt]	0.55
C[C@H](CNCCC(=O)N(CCNCCc1ccc(O)c2[nH]c(=O)sc12)CC(C)(C)C)c1ccccc1 [Example 11, bis-trifluoroacetic acid salt]	0.84

Value sought for every listed compound: β2 Int Act.
1. O=C(NCc1ccccc1)c1ccc(CCNCCC(=O)N(CCNCCc2ccc(O)c3[nH]c(=O)sc23)C2CCCCCC2)cc1 [Example 100, bis-trifluoroacetic acid salt]
2. O=C(CCNCCc1cccc(F)c1)N(CCNCCc1ccc(O)c2[nH]c(=O)sc12)C1CCCCCC1 [Example 36, bis-trifluoroacetic acid salt]
3. COc1ccc(CCNCCC(=O)N(CCNCCc2ccc(O)c3[nH]c(=O)sc23)C2CCCCC2)cc1 [Example 68, bis-trifluoroacetic acid salt]
4. CC(C)(CN(CCNCCc1ccc(O)c2[nH]c(=O)sc12)C(=O)CCNCCc1ccccc1)c1ccccc1 [Example 45, bis-trifluoroacetic acid salt]
5. CC(CN(C(=O)CCNCCc1ccccc1)C1CCCCC1)NCCc1ccc(O)c2[nH]c(=O)sc12 (stereo not drawn) [Example 105, bis-trifluoroacetic acid salt]

0.81
0.84
0.68
0.55
0.86

Give β2 Int Act for each listed item.
1. O=C(CCNCCc1ccc(Cl)s1)N(CCNCCc1ccc(O)c2[nH]c(=O)sc12)C1CCCCC1 [Example 72, bis-trifluoroacetic acid salt]
2. O=C(CCNCCc1ccc(F)cc1Cl)N(CCNCCc1ccc(O)c2[nH]c(=O)sc12)C1CCCCCC1 [Example 57, bis-trifluoroacetic acid salt]

[0.89, 0.72]

---

target: Adrenergic β2 (Homo sapiens, UniProt P07550); construct: Adherent H292 cells were removed from tissue culture flasks; endogenous in cells; host or cells: H292 cells; test: Adrenergic β2 mediated cAMP production in H292 cells (AlphaScreen cAMP detection); format: cell-based; details: Intrinsic Activity, fraction relative to the maximum activity determined for formoterol
Counter-ions that a name gives are not always drawn.
QUANTITY KIND: β2 Int Act
Give bare numbers.

Look over these answered cases.
> print(dat)
                                   compound  numeric.value
1  O=C(CCNCCc1cc(F)ccc1F)N(CCNCCc1ccc(O)c2[nH]c(=O)sc12)C1CCCCC1 [Example 79, bis-trifluoroacetic acid salt]           0.84
2  O=C(CCNCCc1ccc(Cl)cc1)N(CCNCCc1ccc(O)c2[nH]c(=O)sc12)C1CCCCC1 [Example 13, bis-trifluoroacetic acid salt]           0.71
3  O=C(CCNCCc1cc(F)ccc1F)N(CCNCCc1ccc(O)c2[nH]c(=O)sc12)C1CCCCCC1 [Example 83, bis-trifluoroacetic acid salt]           0.71
4  O=C(CCNCCc1cc(F)cc(F)c1)N(CCNCCc1ccc(O)c2[nH]c(=O)sc12)C1CCCCC1 [Example 78, bis-trifluoroacetic acid salt]           0.91

Look at each compound and report its β2 Int Act.
1. CC(C)(CO)CN(CCNCCc1ccc(O)c2[nH]c(=O)sc12)C(=O)CCNCCc1cccc(Cl)c1Cl [Example 67, bis-trifluoroacetic acid salt]
2. O=C(CCNCCc1cccc(O)c1)N(CCNCCc1ccc(O)c2[nH]c(=O)sc12)C1CCCCCC1 [Example 37, bis-trifluoroacetic acid salt]

1: 0.70; 2: 0.91

---

Biological target: Adrenergic β2 (Homo sapiens, UniProt P07550)
Construct: Adherent H292 cells were removed from tissue culture flasks; endogenous in cells; host or cells: H292 cells
Experiment: Adrenergic β2 mediated cAMP production in H292 cells (AlphaScreen cAMP detection)
Assay type: cell-based
Details: Intrinsic Activity, fraction relative to the maximum activity determined for formoterol
Procedure: Adrenergic β2 Mediated cAMP Production H292 cells were grown in 225 cm2 flasks incubator at 37° C., 5% CO2 in RPMI medium containing, 10% (v/v) FBS (foetal bovine serum) and 2 mM L-glutamine. […] The concentration of cAMP (cyclic adenosine monophosphate) in the cell lysate was determined using AlphaScreen™ methodology. […] Intrinsic Activity was expressed as a fraction relative to the maximum activity determined for formoterol in each experiment.
Counter-ions that a name gives are not always drawn.
Label scheme for β2 Int Act: lower than 0.8 is f, 0.8 and above is t.

> print(dat)
                                   molecule  group
1  CCCC[C@@H](C)N(CCNCCc1ccc(O)c2[nH]c(=O)sc12)C(=O)CCNCCc1ccccc1 [Example 101, bis-trifluoroacetic acid salt]      t
2  O=C(CCNCCc1ccccc1Cl)N(CCNCCc1ccc(O)c2[nH]c(=O)sc12)C1CCCC1 [Example 29, bis-trifluoroacetic acid salt]      t
3  O=C(CCNCCc1cc(F)cc(F)c1)N(CCNCCc1ccc(O)c2[nH]c(=O)sc12)C1CCCCCC1 [Example 58, bis-trifluoroacetic acid salt]      t
4  CC(C)(C)CN(CCNCCc1ccc(O)c2[nH]c(=O)sc12)C(=O)CCNCCc1cccc(F)c1 [Example 44, bis-trifluoroacetic acid salt]      f

Then this molecule:
Say whether CCCC(CCC)N(CCNCCc1ccc(O)c2[nH]c(=O)sc12)C(=O)CCNCCc1ccc(F)cc1 [Example 64, bis-trifluoroacetic acid salt] shows β2 Int Act of 0.8 or more.
f

---

target: Adrenergic β2 (Homo sapiens, UniProt P07550); construct: Adherent H292 cells were removed from tissue culture flasks; endogenous in cells; host or cells: H292 cells; assay: Adrenergic β2 mediated cAMP production in H292 cells (AlphaScreen cAMP detection); assay type: cell-based; settings: Intrinsic Activity, fraction relative to the maximum activity determined for formoterol
Where a name gives a salt, the structure may show the parent alone.
// boundary case: β2 Int Act equal to 0.9 maps to false (0); strictly smaller maps to true (1)

COMPOUND	TARGET OR TEST SYSTEM	GROUP
O=C(CCNCCc1cccc(F)c1F)N(CCNCCc1ccc(O)c2[nH]c(=O)sc12)C1CCCCCC1 [Example 56, bis-trifluoroacetic acid salt]	Adrenergic β2 (Homo sapiens, UniProt P07550)	true (1)
O=C(CCNCCc1cccc(Cl)c1)N(CCNCCc1ccc(O)c2[nH]c(=O)sc12)C1CCC(F)(F)CC1 [Example 47, bis-trifluoroacetic acid salt]	Adrenergic β2 (Homo sapiens, UniProt P07550)	true (1)
CCCC[C@H](C)N(CCNCCc1ccc(O)c2[nH]c(=O)sc12)C(=O)CCNCCc1ccccc1 [Example 102, bis-trifluoroacetic acid salt]	Adrenergic β2 (Homo sapiens, UniProt P07550)	true (1)
CC(CN(C(=O)CCNCCc1cccc(F)c1)C1CCCCCC1)NCCc1ccc(O)c2[nH]c(=O)sc12 (stereo not drawn) [Example 104, bis-trifluoroacetic acid salt]	Adrenergic β2 (Homo sapiens, UniProt P07550)	true (1)

Is the reported β2 Int Act for Cc1ccccc1CCNCCC(=O)N(CCNCCc1ccc(O)c2[nH]c(=O)sc12)C1CCOCC1 [Example 27, bis-trifluoroacetic acid salt] strictly below 0.9?
false (0)

Quick check: does O=C(CCNCCc1cccc(Cl)c1)N(CCNCCc1ccc(O)c2[nH]c(=O)sc12)C1CCCCC1 [Example 12, bis-trifluoroacetic acid salt] have β2 Int Act under 0.9?
true (1)

---

biological target: Adrenergic β2 (Homo sapiens, UniProt P07550); construct: Adherent H292 cells were removed from tissue culture flasks; endogenous in cells; host or cells: H292 cells; experiment: Adrenergic β2 mediated cAMP production in H292 cells (AlphaScreen cAMP detection); assay type: cell-based; conditions: Intrinsic Activity, fraction relative to the maximum activity determined for formoterol
Where a name gives a salt, the structure may show the parent alone.
QUANTITY KIND: β2 Int Act
Give bare numbers.

Worked cases, β2 Int Act given:
> print(dat)
                                   molecule  quantity.kind  numeric.value
1  CC(C)(C)CN(CCNCCc1ccc(O)c2[nH]c(=O)sc12)C(=O)CCNCCc1ccc(Cl)cc1 [Example 8, bis-trifluoroacetic acid salt]     β2 Int Act           0.73
2  C[C@@H](CNCCC(=O)N(CCNCCc1ccc(O)c2[nH]c(=O)sc12)C1CCCCC1)c1ccccc1 [Example 20, bis-trifluoroacetic acid salt]     β2 Int Act           0.97
3  O=C(CCNCCc1cccc(F)c1F)N(CCNCCc1ccc(O)c2[nH]c(=O)sc12)C1CCCCC1 [Example 81, bis-trifluoroacetic acid salt]     β2 Int Act           0.89
4  CC(C)(CO)CN(CCNCCc1ccc(O)c2[nH]c(=O)sc12)C(=O)CCNCCc1ccccc1Cl [Example 65, bis-trifluoroacetic acid salt]     β2 Int Act           0.59
5  O=C(CCNCCc1ccc(Cl)cc1)N(CCNCCc1ccc(O)c2[nH]c(=O)sc12)C1CCOCC1 [Example 26, bis-trifluoroacetic acid salt]     β2 Int Act           0.83

Need β2 Int Act for each of these molecules.
1. O=C(CCNCCc1ccc(O)cc1)N(CCNCCc1ccc(O)c2[nH]c(=O)sc12)C1CCCCC1 [Example 34, bis-trifluoroacetic acid salt]
2. CC(C)(CNCCC(=O)N(CCNCCc1ccc(O)c2[nH]c(=O)sc12)C1CCCCC1)c1ccccc1 [Example 21, bis-trifluoroacetic acid salt]
3. CC(C)N(CCNCCc1ccc(O)c2[nH]c(=O)sc12)C(=O)CCNCCc1ccc(Cl)cc1 [Example 3, bis-trifluoroacetic acid salt]
4. CC(C)(C)CN(CCNCCc1ccc(O)c2[nH]c(=O)sc12)C(=O)CCNC(C)(C)Cc1ccccc1 [Example 38, bis-trifluoroacetic acid salt]
5. O=C(CCNC[C@H](O)c1ccccc1)N(CCNCCc1ccc(O)c2[nH]c(=O)sc12)C1CCCCC1 [Example 75, bis-trifluoroacetic acid salt]

[0.75, 0.85, 0.34, 0.42, 0.91]

Take each entry in turn and give its β2 Int Act.
1. CCCC(CCC)N(CCNCCc1ccc(O)c2[nH]c(=O)sc12)C(=O)CCNCCc1cccc(F)c1 [Example 63, bis-trifluoroacetic acid salt]
2. O=C(CCNCCc1cccc(Cl)c1)N(CCNCCc1ccc(O)c2[nH]c(=O)sc12)C1CCCCCC1 [Example 50, bis-trifluoroacetic acid salt]

0.93
0.91
